Reported Binding of serum 1a to linear peptides of protein X4 of SARS-CoV Urbani values are given for each entry in this list.
- Tested on: antibodies in sera from SARS patients (sera 1a, 1b, 2, 6, 37, 62, London, SARS-yellow, SARS-green)
- Type: binding, human

| BIOSEQUENCE | REPORTED_MEASUREMENT |
| --- | --- |
| AALVFLILCFTIKRK | 0.7 |
| LLKEPCPSGTYEGNS | 0.8 |
| TYQLRARSVSPKLFI | 0.8 |

sequence `STHFAFACADGTRHT` , Binding of serum 1a to linear peptides of protein X4 of SARS-CoV Urbani observed: 0.7

----------
- Tested on: antibodies in sera from SARS patients (sera 1a, 1b, 2, 6, 37, 62, London, SARS-yellow, SARS-green)
- Format: binding, human
TEST_READOUT: Binding of serum 6 to looped/cyclic peptides of protein X5 of SARS-CoV Urbani
# answer = number (no unit)

Examples from the recorded data:
| BIOSEQUENCE | REPORTED_MEASUREMENT |
| --- | --- |
| RYNTRGNTYSTAWLC | 0.1 |
| PFHRWHTMVQTCTPN | 0.3 |

sequence `LVRYNTRGNTYSTAW` , Binding of serum 6 to looped/cyclic peptides of protein X5 of SARS-CoV Urbani observed: 0.3

sequence `WLCALGKVLPFHRWH` , Binding of serum 6 to looped/cyclic peptides of protein X5 of SARS-CoV Urbani observed: 0.7

sequence `MCLKILVRYNTRGNT` , Binding of serum 6 to looped/cyclic peptides of protein X5 of SARS-CoV Urbani observed: 0.4

----------
- System: control sera (pooled serum of ten healthy LUMC hospital workers; commercial negative donor pooled serum from the Dutch bloodbank)
- Type: binding, human
- Parameters: unit not given here
Reported Binding of Control serum Blood-bank to linear peptides of the protein M of SARS-CoV Urbani values are given for each entry in this list.
# answer = number (no unit)

Examples from the recorded data:
| BIOSEQUENCE | REPORTED_MEASUREMENT |
| --- | --- |
| NTDHAGSNDNIALLV | 0.8 |
| IIKLVFLWLLWPVTL | 0.5 |
| LMWLSYFVASFRLFA | 0.5 |

sequence `ITVATSRTLSYYKLG` , Binding of Control serum Blood-bank to linear peptides of the protein M of SARS-CoV Urbani observed: 0.8

sequence `LLNVPLRGTIVTRPL` , Binding of Control serum Blood-bank to linear peptides of the protein M of SARS-CoV Urbani observed: 0.7

sequence `TDHAGSNDNIALLVQ` , Binding of Control serum Blood-bank to linear peptides of the protein M of SARS-CoV Urbani observed: 0.7

sequence `SQRVGTDSGFAAYNR` , Binding of Control serum Blood-bank to linear peptides of the protein M of SARS-CoV Urbani observed: 0.9

sequence `GLMWLSYFVASFRLF` , Binding of Control serum Blood-bank to linear peptides of the protein M of SARS-CoV Urbani observed: 0.6

sequence `ACFVLAAVYRINWVT` , Binding of Control serum Blood-bank to linear peptides of the protein M of SARS-CoV Urbani observed: 0.7

sequence `WLSYFVASFRLFART` , Binding of Control serum Blood-bank to linear peptides of the protein M of SARS-CoV Urbani observed: 0.7

sequence `GNYKLNTDHAGSNDN` , Binding of Control serum Blood-bank to linear peptides of the protein M of SARS-CoV Urbani observed: 0.6

sequence `YKLNTDHAGSNDNIA` , Binding of Control serum Blood-bank to linear peptides of the protein M of SARS-CoV Urbani observed: 0.6

----------
- Tested on: antibodies in sera from SARS patients (sera 1a, 1b, 2, 6, 37, 62, London, SARS-yellow, SARS-green)
- Type: binding, human
Reported Binding of serum London to linear peptide (PEPSCAN-ELISA) values are given for each entry in this list.
# answer = number (no unit)

Examples from the recorded data:
| BIOSEQUENCE | REPORTED_MEASUREMENT |
| --- | --- |
| ALLLLDRLNQLESKV | 0.6 |
| LALLLLDRLNQLESK | 0.7 |
| FGDQDLIRQGTDYKH | 0.6 |

sequence `KVSGKGQQQQGQTVT` , Binding of serum London to linear peptide (PEPSCAN-ELISA) observed: 0.5

sequence `KKPRQKRTATKQYNV` , Binding of serum London to linear peptide (PEPSCAN-ELISA) observed: 0.7

sequence `GKGQQQQGQTVTKKS` , Binding of serum London to linear peptide (PEPSCAN-ELISA) observed: 0.5

sequence `RGNSPARMASGGGET` , Binding of serum London to linear peptide (PEPSCAN-ELISA) observed: 0.5

sequence `NSTPGSSRGNSPARM` , Binding of serum London to linear peptide (PEPSCAN-ELISA) observed: 1.6

sequence `EGSRGGSQASSRSSS` , Binding of serum London to linear peptide (PEPSCAN-ELISA) observed: 0.5

----------
- System: antibodies in sera from SARS patients (sera 1a, 1b, 2, 6, 37, 62, London, SARS-yellow, SARS-green)
- Assay type: binding, human
TEST_READOUT: Binding of serum 1b to linear peptides of protein N of SARS-CoV Urbani
# answer = number (no unit)

Examples from the recorded data:
| BIOSEQUENCE | REPORTED_MEASUREMENT |
| --- | --- |
| KKDKKKKTDEAQPLP | 0.2 |
| LPYGANKEGIVWVAT | 0.2 |
| NGPQSNQRSAPRITF | 0.1 |
| YRRATRRVRGGDGKM | 0.1 |
| TYHGAIKLDDKDPQF | 0.1 |
| RFPRGQGVPINTNSG | 0.1 |
| DEAQPLPQRQKKQPT | 0.2 |
| ILLNKHIDAYKTFPP | 0.1 |

sequence `QSNQRSAPRITFGGP` , Binding of serum 1b to linear peptides of protein N of SARS-CoV Urbani observed: 0.1

----------
- System: antibodies in sera from SARS patients (sera 1a, 1b, 2, 6, 37, 62, London, SARS-yellow, SARS-green)
- Type: binding, human
- Design: unit not given here
Checkbox rule: Binding of serum 37 to linear peptides of protein X1 of SARS-CoV Urbani lower than 0.6 = 1 (yes); Binding of serum 37 to linear peptides of protein X1 of SARS-CoV Urbani not lower than 0.6 = 0 (no).

Record excerpt, results attached:
| BIOSEQUENCE | CLASS_LABEL |
| --- | --- |
| YKGFQFICNLLLLFV | 0 (no) |
| TKIIALNKRWQLALY | 0 (no) |
| VFQSATKIIALNKRW | 0 (no) |

[in] Consider `IVVTEGDGISTPKLK` . Does its Binding of serum 37 to linear peptides of protein X1 of SARS-CoV Urbani lie strictly below 0.6?
[out] 1 (yes)

[in] Consider `DTIVVTEGDGISTPK` . Does its Binding of serum 37 to linear peptides of protein X1 of SARS-CoV Urbani lie strictly below 0.6?
[out] 1 (yes)

[in] Consider `SHLLLVAAGMEAQFL` . Does its Binding of serum 37 to linear peptides of protein X1 of SARS-CoV Urbani lie strictly below 0.6?
[out] 0 (no)

[in] Consider `VIGVAFLAVFQSATK` . Does its Binding of serum 37 to linear peptides of protein X1 of SARS-CoV Urbani lie strictly below 0.6?
[out] 1 (yes)

[in] Consider `FQFICNLLLLFVTIY` . Does its Binding of serum 37 to linear peptides of protein X1 of SARS-CoV Urbani lie strictly below 0.6?
[out] 1 (yes)

[in] Consider `QSATKIIALNKRWQL` . Does its Binding of serum 37 to linear peptides of protein X1 of SARS-CoV Urbani lie strictly below 0.6?
[out] 0 (no)

[in] Consider `FLQCINACRIIMRCW` . Does its Binding of serum 37 to linear peptides of protein X1 of SARS-CoV Urbani lie strictly below 0.6?
[out] 0 (no)

[in] Consider `IYFLQCINACRIIMR` . Does its Binding of serum 37 to linear peptides of protein X1 of SARS-CoV Urbani lie strictly below 0.6?
[out] 0 (no)

[in] Consider `SKNPLLYDANYFVCW` . Does its Binding of serum 37 to linear peptides of protein X1 of SARS-CoV Urbani lie strictly below 0.6?
[out] 1 (yes)

[in] Consider `LQCINACRIIMRCWL` . Does its Binding of serum 37 to linear peptides of protein X1 of SARS-CoV Urbani lie strictly below 0.6?
[out] 0 (no)

[in] Consider `YVVVHGYFTEVYYQL` . Does its Binding of serum 37 to linear peptides of protein X1 of SARS-CoV Urbani lie strictly below 0.6?
[out] 1 (yes)

----------
- Test system: antibodies in sera from SARS patients (sera 1a, 1b, 2, 6, 37, 62, London, SARS-yellow, SARS-green)
- Type: binding, human
Reported Binding of serum 1b to linear peptides of protein N of SARS-CoV Urbani values are given for each entry in this list.
# answer = number (no unit)

| BIOSEQUENCE | REPORTED_MEASUREMENT |
| --- | --- |
| TDNNQNGGRNGARPK | 0.2 |
| LTYHGAIKLDDKDPQ | 0.1 |
| YFYYLGTGPEASLPY | 0.1 |
| AIKLDDKDPQFKDNV | 0.1 |
| SLPYGANKEGIVWVA | 0.1 |

sequence `QKKQPTVTLLPAADM` , Binding of serum 1b to linear peptides of protein N of SARS-CoV Urbani observed: 0.2
